- target-under-test: cGMP-inhibited 3',5'-cyclic phosphodiesterase 3A (Homo sapiens, UniProt Q14432)
- Sequence (Q14432 whole entry): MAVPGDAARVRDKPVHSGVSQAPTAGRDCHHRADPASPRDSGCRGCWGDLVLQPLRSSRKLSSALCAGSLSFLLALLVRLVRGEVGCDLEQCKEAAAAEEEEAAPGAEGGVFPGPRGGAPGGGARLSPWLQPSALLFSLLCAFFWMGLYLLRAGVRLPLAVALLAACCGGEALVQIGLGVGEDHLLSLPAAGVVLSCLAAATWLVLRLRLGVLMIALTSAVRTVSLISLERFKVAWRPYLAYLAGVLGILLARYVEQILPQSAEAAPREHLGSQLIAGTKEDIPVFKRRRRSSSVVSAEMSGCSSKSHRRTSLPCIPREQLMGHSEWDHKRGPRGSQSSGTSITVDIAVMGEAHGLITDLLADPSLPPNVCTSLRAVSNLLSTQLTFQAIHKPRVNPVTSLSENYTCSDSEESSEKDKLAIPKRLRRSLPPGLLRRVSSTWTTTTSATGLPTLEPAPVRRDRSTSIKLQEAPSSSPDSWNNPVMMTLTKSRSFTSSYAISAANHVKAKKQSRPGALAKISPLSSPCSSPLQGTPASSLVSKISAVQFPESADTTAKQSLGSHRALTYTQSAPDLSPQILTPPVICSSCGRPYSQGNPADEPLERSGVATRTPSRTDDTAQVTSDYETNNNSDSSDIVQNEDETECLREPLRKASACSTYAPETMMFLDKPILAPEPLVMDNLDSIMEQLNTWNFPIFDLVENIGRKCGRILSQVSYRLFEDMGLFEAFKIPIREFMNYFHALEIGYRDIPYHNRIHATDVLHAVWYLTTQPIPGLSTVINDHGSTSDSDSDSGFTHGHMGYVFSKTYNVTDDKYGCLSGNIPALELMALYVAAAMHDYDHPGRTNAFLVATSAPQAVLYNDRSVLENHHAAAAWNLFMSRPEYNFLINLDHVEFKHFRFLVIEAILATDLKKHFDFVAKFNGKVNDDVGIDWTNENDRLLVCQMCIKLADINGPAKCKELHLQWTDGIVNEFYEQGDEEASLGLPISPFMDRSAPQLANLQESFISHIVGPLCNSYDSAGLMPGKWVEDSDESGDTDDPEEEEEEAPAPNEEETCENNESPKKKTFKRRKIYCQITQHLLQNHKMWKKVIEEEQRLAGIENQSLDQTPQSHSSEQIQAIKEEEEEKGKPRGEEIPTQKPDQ
Returns the class for an entry based on its IC50. Class ranges: 1: < 2 µM; 2: ≥ 2 µM and < 6 µM; 3: ≥ 6 µM

COc1ccc(C2=NNC(=O)C2(C)C)c2cc(C(F)(F)F)sc12	2
COc1ccc(C2=NNC(=O)C2(C)C)n2cc(C(F)(F)F)nc12	1
COc1ccc(C2=NNC(=O)C2(C)C)c2cc(C(F)F)nn12	2

Assign a bin to "COc1ccc(C2=NNC(=O)C2(C)C)c2sc(C(F)(F)F)nc12" 1

Each compound maps to one class by IC50. Which class for "CCc1cc2c(C3=NNC(=O)C3(C)C)ccc(C)n2n1" ? 2

Which IC50 band matches CCc1cc2c(C3=NNC(=O)CC3C)ccc(OC)n2n1 (racemic) ? 3

Class? Entry: "COc1ccc(C2=NNC(=O)C2(C)C)c2ccnn12" 3

Band for the recorded IC50 of "CCc1cc2c(C3=NNC(=O)C3(C)C)ccc(SC)n2n1" ? 3

----------
- target-under-test: cGMP-inhibited 3',5'-cyclic phosphodiesterase 3A (Homo sapiens, UniProt Q14432)
Listed next: entries and their corresponding pIC50.
Scale: negative log10 of molar concentration, which is what pIC50 denotes.

COc1ccc(C2=NNC(=O)C2(C)C)c2ccc(C(F)(F)F)nc12	5.18
CCc1cc2c(C3=NNC(=O)C3(C)C)ccc(CO)n2n1	5.80
CCc1cc2c(C3=NNC(=O)C3(C)C)ccc(NC)n2n1	4.12
CCc1cc2c(C3=NNC(=O)C3(C)C)ccc(OC)n2n1	5.04
CCc1cc2c(C3=NNC(=O)C3(C)C)ccc(C(C)=O)n2n1	5.60

Proceeding to the next compound to report its pIC50.
Please provide the recorded pIC50 for CCc1cc2c(C3=NNC(=O)C3(C)C)ccc(C(C)O)n2n1 (racemic) , tested on cGMP-inhibited 3',5'-cyclic phosphodiesterase 3A (Homo sapiens, UniProt Q14432). 5.79

----------
- target-under-test: 3',5'-cyclic-AMP phosphodiesterase 4B (Homo sapiens, UniProt Q07343)
- Sequence (Q07343 whole entry): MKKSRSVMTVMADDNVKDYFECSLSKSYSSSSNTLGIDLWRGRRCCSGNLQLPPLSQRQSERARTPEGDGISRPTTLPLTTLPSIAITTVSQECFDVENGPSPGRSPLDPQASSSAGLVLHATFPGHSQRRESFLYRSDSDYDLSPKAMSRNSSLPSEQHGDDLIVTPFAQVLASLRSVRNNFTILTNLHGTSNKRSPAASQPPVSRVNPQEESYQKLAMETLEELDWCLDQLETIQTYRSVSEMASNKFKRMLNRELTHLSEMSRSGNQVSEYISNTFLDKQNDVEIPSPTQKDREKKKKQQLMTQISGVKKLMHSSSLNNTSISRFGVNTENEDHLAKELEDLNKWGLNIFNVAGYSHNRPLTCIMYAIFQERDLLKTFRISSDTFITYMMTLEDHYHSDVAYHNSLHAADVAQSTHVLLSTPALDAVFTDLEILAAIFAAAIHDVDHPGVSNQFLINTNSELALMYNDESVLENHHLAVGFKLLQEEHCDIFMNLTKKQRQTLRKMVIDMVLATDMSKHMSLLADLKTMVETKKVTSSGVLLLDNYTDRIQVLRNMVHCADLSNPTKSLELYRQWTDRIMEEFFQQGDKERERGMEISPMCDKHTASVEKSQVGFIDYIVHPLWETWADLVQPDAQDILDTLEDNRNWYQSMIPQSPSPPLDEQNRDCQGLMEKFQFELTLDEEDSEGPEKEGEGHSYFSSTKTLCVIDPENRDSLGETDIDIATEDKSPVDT
parameter-measured: IC50

Use these answered entries as a reference point.
CCc1cc2c(C3=NNC(=O)C3(C)C)ccc(C)n2n1	160 nM
CCc1cc2c(C3=NNC(=O)C3(C)C)ccc(C(C)O)n2n1 (racemic)	3.4 nM
COc1ccc(C2=NNC(=O)C2(C)C)c2cc(C(F)(F)F)sc12	690 nM
COc1ccc(C2=NNC(=O)C2(C)C)c2ccnn12	2930 nM
COc1ccc(C2=NNC(=O)C2(C)C)c2sc(C(F)(F)F)nc12	63 nM

Return reported IC50; argument: "COc1ccc(C2=NNC(=O)C2(C)C)n2cc(C(F)(F)F)nc12" 150 nM

What IC50 value was documented for this molecule, CCc1cc2c(C3=NNC(=O)CC3C)ccc(OC)n2n1 (racemic) ? 470 nM

Consider the molecule "COc1ccc(C2=NNC(=O)C2(C)C)c2cc(C3CC3)nn12" and give its measured IC50. 150 nM

Dear colleague, I am looking for the recorded IC50 of the following molecule: "CCc1cc2c(C3=NNC(=O)C3(C)C)ccc(CO)n2n1" 35 nM

Entry under review: "CCc1cc2c(C3=NNC(=O)C3(C)C)ccc(NC)n2n1" . Reported IC50? 15 nM

Endpoint output: IC50 of "COc1ccc(C2=NNC(=O)C2(C)C)c2cc(C(F)F)nn12" . Value? 50 nM

----------
Below are compounds with their pIC50 as measured on 3',5'-cyclic-AMP phosphodiesterase 4B (Homo sapiens).
API: returns pIC50 as number; meaning -log10 of concentration in mol/L.

CCc1cc2c(C3=NNC(=O)C3(C)C)ccc(OC)n2n1	6.39
CCc1cc2c(C3=NNC(=O)C3(C)C)ccc(SC)n2n1	7.10
CCc1cc2c(C3=NNC(=O)C3(C)C)ccc(CC)n2n1	7.77

Consider the record given below.
Given the entry "CCc1cc2c(C3=NNC(=O)C3(C)C)ccc(C(C)=O)n2n1" , what pIC50 was observed with 3',5'-cyclic-AMP phosphodiesterase 4B (Homo sapiens)? 8.12

These entries and their values trace back to ChEMBL document CHEMBL2069289.
